The following compounds are shown together with reported hERG current change (%, negative = inhibition) at 10uM values.
# ASSAY TARGET: human ether-à-go-go-related gene (hERG) potassium channel (human)
# TEST METHOD NOTES: primary screen, population patch clamp on CHO cells stably expressing hERG; higher = less effect of the substance
In all, about 310,000 compounds went through this assay and about 14,000 (4.5%) showed an effect of 50% or more. The effect is printed as a negative number. What follows is part of a selection rich in strong results, with near analogues and random picks from the rest.
Report the figure in % without appending any unit label.

The examples below pair each entry with its known result.
Nc1c(C(=O)NC2CCCC2)c2nc3ccccc3nc2n1N: 25.1
CCN(CC)CCCNC(=O)c1cn(CCOC)c(=O)c2c1c1ccccc1n2C: -0.445
CCOC(=O)C1CCN(S(=O)(=O)c2cccc(-c3cn4cccnc4n3)c2)CC1: -24.7

Return reported hERG current change (%, negative = inhibition) at 10uM; argument: CC(=O)Nc1ccc(CN2CCCC(CCC(=O)NCc3ccccc3F)C2)cc1 (stereo not drawn)
-8.19

Return reported hERG current change (%, negative = inhibition) at 10uM; argument: `CCCCN(CCCC)C(=O)c1sc2nc(N3CCOCC3)c3c(c2c1N)CCCC3`
9

Return reported hERG current change (%, negative = inhibition) at 10uM; argument: `CCOC(=O)c1c(NC(=S)N2CCOCC2)sc2c1CCN(C(=O)OCC)C2`
-1.31

* * *

# ASSAY TARGET: human ether-à-go-go-related gene (hERG) potassium channel (human, UniProt Q12809);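 further: peak tail current of the secondary pulse compared with the same well before compound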
# Sequence (Q12809 whole entry, looked up): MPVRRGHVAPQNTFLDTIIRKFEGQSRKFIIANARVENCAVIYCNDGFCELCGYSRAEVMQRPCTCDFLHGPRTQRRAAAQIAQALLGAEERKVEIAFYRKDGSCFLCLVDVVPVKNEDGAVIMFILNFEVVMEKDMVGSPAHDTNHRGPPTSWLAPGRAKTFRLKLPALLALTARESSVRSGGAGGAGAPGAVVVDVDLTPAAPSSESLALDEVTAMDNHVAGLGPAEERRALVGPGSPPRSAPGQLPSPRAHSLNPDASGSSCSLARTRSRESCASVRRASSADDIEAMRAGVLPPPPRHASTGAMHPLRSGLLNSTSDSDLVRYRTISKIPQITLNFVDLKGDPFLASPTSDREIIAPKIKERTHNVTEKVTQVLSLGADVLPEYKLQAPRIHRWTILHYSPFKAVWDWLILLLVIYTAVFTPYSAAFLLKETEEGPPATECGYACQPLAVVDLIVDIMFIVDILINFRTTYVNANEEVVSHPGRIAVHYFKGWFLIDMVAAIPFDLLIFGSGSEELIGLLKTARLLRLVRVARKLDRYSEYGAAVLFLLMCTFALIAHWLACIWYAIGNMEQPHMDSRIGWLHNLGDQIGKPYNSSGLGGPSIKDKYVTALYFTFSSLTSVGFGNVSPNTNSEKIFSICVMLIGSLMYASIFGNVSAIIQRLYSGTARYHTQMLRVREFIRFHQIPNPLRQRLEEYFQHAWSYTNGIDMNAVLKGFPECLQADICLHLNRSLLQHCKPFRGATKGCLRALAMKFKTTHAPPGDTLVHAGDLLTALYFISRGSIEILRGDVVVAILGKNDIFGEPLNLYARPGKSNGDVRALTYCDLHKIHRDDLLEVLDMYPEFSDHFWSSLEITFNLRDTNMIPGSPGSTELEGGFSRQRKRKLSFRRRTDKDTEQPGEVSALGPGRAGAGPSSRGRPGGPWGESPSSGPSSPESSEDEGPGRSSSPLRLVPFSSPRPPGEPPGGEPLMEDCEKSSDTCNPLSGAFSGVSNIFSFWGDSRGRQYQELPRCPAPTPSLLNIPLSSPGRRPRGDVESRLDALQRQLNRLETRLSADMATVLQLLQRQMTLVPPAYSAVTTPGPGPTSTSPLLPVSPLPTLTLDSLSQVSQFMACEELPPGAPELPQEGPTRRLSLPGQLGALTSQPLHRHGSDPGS
# TEST METHOD NOTES: primary screen, population patch clamp on CHO cells stably expressing hERG; higher = less effect of the substance
In all, about 310,000 compounds went through this assay and about 14,000 (4.5%) showed an effect of 50% or more. The effect is printed as a negative number. What follows is part of a selection rich in strong results, with near analogues and random picks from the rest.
The following compounds are shown together with reported hERG current change (%, negative = inhibition) at 10uM values.
Report the figure in % without appending any unit label.

The examples below pair each entry with its known result.
Cn1c(=O)cc(SCC(=O)NCCCN2CCOCC2)c2ccccc21: -2.51
O=S(=O)(CCSc1ccc(C(F)(F)F)cn1)c1ccc(Cl)cc1: 13
Cn1c(=O)cc(SCC(=O)NCc2ccc(F)cc2)c2ccccc21: -17.4
CCn1c(=O)cc(SCC(=O)N2CCN(c3ccccc3OC)CC2)c2ccccc21: -52
Cc1cc(=O)n2nc(N3CCC(C(=O)NCc4cccnc4)CC3)sc2n1: 7.16

Return reported hERG current change (%, negative = inhibition) at 10uM; argument: `CNC(=O)c1cc(-c2ccc(Cl)cc2)n(-c2ccccc2)n1`
4.41

Return reported hERG current change (%, negative = inhibition) at 10uM; argument: `COc1cccc(OCCCN2CCCCC2)c1`
-16.2

Return reported hERG current change (%, negative = inhibition) at 10uM; argument: `Cc1cc(C)c2nc(N3CCC(C(=O)NCCN4CCOCC4)CC3)sc2c1`
-10.5

Return reported hERG current change (%, negative = inhibition) at 10uM; argument: `CN(C)CCCOc1ccc2c(c1)Sc1ccccc1CC2=O.Cl`
-74.3

Return reported hERG current change (%, negative = inhibition) at 10uM; argument: `O=c1c2ccccc2nc(-c2ccoc2)n1CCc1ccccc1`
-3.87

Return reported hERG current change (%, negative = inhibition) at 10uM; argument: `Cc1cc(C)c2nc(N3CCC(C(=O)NCc4ccccn4)CC3)sc2c1`
-25.3

Return reported hERG current change (%, negative = inhibition) at 10uM; argument: `CCn1c(=O)cc(SCC(=O)N2CCN(C)CC2)c2ccccc21`
6.22

Return reported hERG current change (%, negative = inhibition) at 10uM; argument: `COc1cccc(NC(=O)Cn2c(=O)n(C)c(=O)c3sc4c(c32)COC(C)(C)C4)c1`
6.82

Return reported hERG current change (%, negative = inhibition) at 10uM; argument: `CCn1c(=O)cc(SCC(=O)NCCCN2CCN(c3ccccc3F)CC2)c2ccccc21`
-62.2

Return reported hERG current change (%, negative = inhibition) at 10uM; argument: `CCn1c(=O)cc(SCC(=O)NCCCN2CCC(C)CC2)c2ccccc21`
-13

Return reported hERG current change (%, negative = inhibition) at 10uM; argument: Cc1c(NC(=O)C(C)OC(=O)c2cc3c4ccccc4n(C)c3s2)c(=O)n(-c2ccccc2)n1C (stereo not drawn)
-68.5

Return reported hERG current change (%, negative = inhibition) at 10uM; argument: `Cc1cc(C)c2nc(N3CCC(C(=O)N4CCCC4)CC3)sc2c1`
-67.7

Return reported hERG current change (%, negative = inhibition) at 10uM; argument: `Cl.O=C1Cc2ccccc2Sc2cc(OCCCN3CCCCC3)ccc21`
-69.8

* * *

# ASSAY TARGET: human ether-à-go-go-related gene (hERG) potassium channel (human, UniProt Q12809);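 further: peak tail current of the secondary pulse compared with the same well before compound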
# TEST METHOD NOTES: primary screen, population patch clamp on CHO cells stably expressing hERG; higher = less effect of the substance
Screen size: about 310,000 compounds; about 14,000 (4.5%) showed an effect of 50% or more. Effects have a minus sign here. What follows is part of a selection rich in strong results, with near analogues and random picks from the rest.
READOUT: hERG current change (%, negative = inhibition) at 10uM (%)
Report the figure in % without appending any unit label.

The examples below pair each entry with its known result.
COc1ccc(-c2cc3nc(C)c(CCC(=O)N4CCN(c5ccccn5)CC4)c(C)n3n2)c(OC)c1: -36
O=C(NCc1ccccc1F)C1CCN(S(=O)(=O)c2ccccc2)CC1: -12.1
CCN(CC(=O)NCc1cccs1)C(=O)CCc1c[nH]c2ccccc12: -17.6
CCOC(=O)C1CCN(C(=O)CCc2c(C)nc3cc(-c4ccc(OC)cc4OC)nn3c2C)CC1: -70.7
CCN(CC(=O)NCc1ccc(Cl)cc1)C(=O)CCc1ccccc1O: -54.1
CCOC(=O)C1CCCCN1C(=O)CCc1c(C)nc2cc(-c3ccccc3)nn2c1C (stereo not shown): -64.4

Return reported hERG current change (%, negative = inhibition) at 10uM; argument: `O=C(COC(=O)Cc1ccccc1[N+](=O)[O-])NCc1ccc(Cl)cc1`
-11

* * *

# ASSAY TARGET: human ether-à-go-go-related gene (hERG) potassium channel (human, UniProt Q12809);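 further: peak tail current of the secondary pulse compared with the same well before compound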
# TEST METHOD NOTES: primary screen, population patch clamp on CHO cells stably expressing hERG; higher = less effect of the substance
The whole screen tested about 310,000 compounds, of which about 14,000 (4.5%) showed an effect of 50% or more. The effect is printed as a negative number. Shown is part of a subset that was picked to be rich in strong results.
READOUT: hERG current change (%, negative = inhibition) at 10uM (%)
Report the figure in % without appending any unit label.

Cc1ccsc1/C=N/NC(=O)CN1CCN(Cc2ccccc2)CC1: -8.1
CCN1CCN(CCCNC(=O)C(=O)c2c(C)[nH]c3ccccc23)CC1: 3.67
CSc1ccc(C(=O)C2CCCN(C(=O)c3cccnc3SC)C2)cc1 (stereo not drawn): -32.4
COC(=O)c1nn(-c2ccc(OC)cc2)c(=O)cc1NN: 26.7

Return reported hERG current change (%, negative = inhibition) at 10uM; argument: Cc1ccc(S(=O)(=O)N2CCCC(C(=O)NC3CCCC3)C2)cc1Cl (stereo not drawn)
17.8

Return reported hERG current change (%, negative = inhibition) at 10uM; argument: `Nc1ccc(Oc2ccc(Br)cc2)cc1`
-4.61

Return reported hERG current change (%, negative = inhibition) at 10uM; argument: `COc1ccc(N2CCN(CCCNC(=O)C(=O)c3c[nH]c4ccccc34)CC2)cc1`
-69.7

Return reported hERG current change (%, negative = inhibition) at 10uM; argument: COc1ccc(C)cc1S(=O)(=O)N1CCCC(C(=O)NC2CC2)C1 (stereo not drawn)
-0.49

Return reported hERG current change (%, negative = inhibition) at 10uM; argument: COc1ccc(C(C(O)C(=O)c2c[nH]c3ccccc23)N2CCN(c3ccccc3)CC2)cc1 (stereo not drawn)
-13.8

* * *

# ASSAY TARGET: human ether-à-go-go-related gene (hERG) potassium channel (human, UniProt Q12809);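 further: peak tail current of the secondary pulse compared with the same well before compound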
# TEST METHOD NOTES: primary screen, population patch clamp on CHO cells stably expressing hERG; higher = less effect of the substance
# Protocol: Briefly, Chinese hamster ovary (CHO) cells stably expressing the hERG channel were dislodged from tissue culture flasks and dispensed into PPC plates. […] During the recording, background leak currents were estimated by a 100 ms step to -80 mV from an initial holding potential of -70 mV and subtracted from the subsequent current measurement. The campaign was conducted in two phases using slight differences in recording protocol. […]
In all, about 310,000 compounds went through this assay and about 14,000 (4.5%) showed an effect of 50% or more. Effects have a minus sign here. Many of the other results were omitted from the sample, so strong results are more common in it than they were.
The following compounds are shown together with reported hERG current change (%, negative = inhibition) at 10uM values.
Report the figure in % without appending any unit label.

C/C(=N\N1CCCCC1)c1c(O)[nH]c(=O)[nH]c1=O: -11

Return reported hERG current change (%, negative = inhibition) at 10uM; argument: O=C(Nc1ccc(-c2cccc(F)c2)cc1)C1CCCN(Cc2ccccn2)C1 (centres unmarked)
-42.3

Return reported hERG current change (%, negative = inhibition) at 10uM; argument: COc1cccc(-c2ccc(NC(=O)C3CCCN(Cc4cnc(C)s4)C3)cc2)c1 (centres unmarked)
2.11

Return reported hERG current change (%, negative = inhibition) at 10uM; argument: Cc1ncc(CN2CCCC(C(=O)Nc3ccc(-c4ccco4)cc3)C2)n1C (centres unmarked)
-59.6

Return reported hERG current change (%, negative = inhibition) at 10uM; argument: `O=C(NC1CCCCCCC1)c1ccccc1O`
-6.11

Return reported hERG current change (%, negative = inhibition) at 10uM; argument: `COc1ccc(C(=O)NCC(=O)N2CCc3ccccc3C2)cc1`
-2.27
